Source of measurements: paper PMC9386786

TARGET DESC: CNOT6L (Homo sapiens, UniProt Q96LI5)
Sequence (Q96LI5 158-555): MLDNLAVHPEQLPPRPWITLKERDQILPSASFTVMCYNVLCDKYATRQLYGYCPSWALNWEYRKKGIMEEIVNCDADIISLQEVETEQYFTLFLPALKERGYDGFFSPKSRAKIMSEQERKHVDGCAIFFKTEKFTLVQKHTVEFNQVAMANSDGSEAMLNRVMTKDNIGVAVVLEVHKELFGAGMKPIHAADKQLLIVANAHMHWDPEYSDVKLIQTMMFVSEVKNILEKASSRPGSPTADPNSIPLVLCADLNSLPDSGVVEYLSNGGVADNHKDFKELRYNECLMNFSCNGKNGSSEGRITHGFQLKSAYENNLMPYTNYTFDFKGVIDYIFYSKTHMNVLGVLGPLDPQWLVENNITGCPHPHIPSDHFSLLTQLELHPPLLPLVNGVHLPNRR
MEASUREMENT LABEL: IC50
A complete answer gives the number and then names the unit.

Return reported IC50. Input molecule: Nc1ncnc2c1ncn2[C@@H]1O[C@H](COP(=O)(O)O)[C@@H](O)[C@H]1O
76.3 µM
